pIC50: −log10 of the molar value.
A compilation of published pIC50 results with human PDE10A2 (Homo sapiens (Human), UniProt Q9Y233).

Examples with their reported pIC50 follow.
compound=O=C1c2c(cccc2-c2ccn[nH]2)CN1CCc1ccc2sccc2n1 experimental_system="human PDE10A2 (Homo sapiens (Human), UniProt Q9Y233)" observed_value="6.70 to 7.00"
compound="Cc1cnc2c(C(=O)NC3(c4ncc(C(F)(F)F)cc4F)CCOCC3O)cnn2c1 (racemic)" experimental_system="human PDE10A2 (Homo sapiens (Human), UniProt Q9Y233)" observed_value="< 5.00"
compound=Cc1cnnc(-c2cnn(C)c2C(=O)Nc2cc3nc(-c4ccccc4)nn3cc2F)c1 experimental_system="human PDE10A2 (Homo sapiens (Human), UniProt Q9Y233)" observed_value="> 8.30"
compound=O=C1c2c(cccc2OCc2cccnc2)CN1CCc1ccc2ccccc2n1 experimental_system="human PDE10A2 (Homo sapiens (Human), UniProt Q9Y233)" observed_value="6.70 to 7.00"
compound=Cn1cncc1-c1cccc2c1C(=O)N(CCc1ccc3ccccc3n1)C2 experimental_system="human PDE10A2 (Homo sapiens (Human), UniProt Q9Y233)" observed_value="6.30 to 6.70"
compound=CCc1csc(-c2cnn(C)c2C(=O)Nc2ccn3nc(-c4ccccc4)nc3c2)n1 experimental_system="human PDE10A2 (Homo sapiens (Human), UniProt Q9Y233)" observed_value="> 8.30"
compound=Cn1ncc(-c2nc(C(F)F)c(Cl)s2)c1C(=O)Nc1ccn2nc(N3CCCC3)nc2c1 experimental_system="human PDE10A2 (Homo sapiens (Human), UniProt Q9Y233)" observed_value="> 8.30"
compound="Cn1ncc(-c2nc(C(F)(F)F)cs2)c1C(=O)NC1CCn2c(nc(-c3ccccc3)c2F)C1 (centres unmarked)" experimental_system="human PDE10A2 (Homo sapiens (Human), UniProt Q9Y233)" observed_value="> 8.30"

Recorded pIC50 for `Cc1nccnc1-c1cnn(C)c1C(=O)Nc1cc2nc(-c3ccccc3)nn2cc1F` on human PDE10A2 (Homo sapiens (Human), UniProt Q9Y233) was > 8.30

Recorded pIC50 for `Cc1ccc2c(c1)nc(CCN1Cc3nccc(-c4cccnc4)c3C1=O)n2C` on human PDE10A2 (Homo sapiens (Human), UniProt Q9Y233) was > 7.00

Recorded pIC50 for `Cc1ccc2c(c1)nc(CCN1Cc3nccc(-c4ccnn4C)c3C1=O)n2C` on human PDE10A2 (Homo sapiens (Human), UniProt Q9Y233) was > 7.00

====

pIC50: −log10 of the molar value.
A compilation of published pIC50 results with human PDE10A2 (Homo sapiens (Human), UniProt Q9Y233).

Examples with their reported pIC50 follow.
molecule=O=C1c2c(-c3cncnc3)ccnc2CN1CCc1cn2ccccc2n1 observed_value="> 7.00"
molecule=O=C(NC1(c2ccc(C(F)(F)F)cc2F)CCOCC1)c1cnn2cc(F)cnc12 observed_value="< 5.00"

Recorded pIC50 for Cc1cccnc1-c1cnn(C)c1C(=O)NC1CCn2nc(-c3ccccc3)nc2C1 (stereo not drawn) on human PDE10A2 (Homo sapiens (Human), UniProt Q9Y233) was 7.00 to 8.30

====

A compilation of published pIC50 results with human PDE10A2 (Homo sapiens (Human)).
pIC50: −log10 of the molar value.
Quantity: pIC50

compound=CC(C)(O)CNC(=O)c1ccncc1NC(=O)c1nc(C2CC2)cnc1Nc1cncnc1 experimental_system="human PDE10A2 (Homo sapiens (Human))" quantity=pIC50 observed_value=8.96
compound=CC1(C)C(=O)N([C@H]2C[C@H](Nc3ccc(Br)cn3)C2)c2nccnc21 experimental_system="human PDE10A2 (Homo sapiens (Human))" quantity=pIC50 observed_value=9.72
compound=CNC(=O)c1nnsc1NC(=O)c1nc(C2CC2)ccc1Nc1cncnc1 experimental_system="human PDE10A2 (Homo sapiens (Human))" quantity=pIC50 observed_value=7.60
compound=CN(C)C(=O)c1ncncc1NC(=O)c1nc(C2CC2)cnc1Nc1cncnc1 experimental_system="human PDE10A2 (Homo sapiens (Human))" quantity=pIC50 observed_value=7.05
compound=CCOC(=O)c1c(-c2ccc(OC)c(OC)c2)c(C)n2c1-c1cc(OC)c(OC)cc1CC2 experimental_system="human PDE10A2 (Homo sapiens (Human))" quantity=pIC50 observed_value=7.58
compound=COc1ccc(C)n2nc(CCc3cc(C)c4ccccc4n3)nc12 experimental_system="human PDE10A2 (Homo sapiens (Human))" quantity=pIC50 observed_value=7.38
compound="CNC(=O)c1nn(C)cc1NC(=O)c1nc(C(C)O)cnc1Nc1cncnc1 (centres unmarked)" experimental_system="human PDE10A2 (Homo sapiens (Human))" quantity=pIC50 observed_value=6.77
compound=Cc1cccc2nc(CCc3nc(-c4cccs4)cn3C[C@@H](O)CN3CCOCC3)nn12 experimental_system="human PDE10A2 (Homo sapiens (Human))" quantity=pIC50 observed_value=7.85
compound=Cn1ncc(Br)c1C(=O)Nc1ccn2cc(-c3ccccc3)nc2n1 experimental_system="human PDE10A2 (Homo sapiens (Human))" quantity=pIC50 observed_value=6.42
compound=Cc1nc2cc(C(C)C)cnc2n2c(-c3cc(OCC(C)(C)O)ccc3Cl)nnc12 experimental_system="human PDE10A2 (Homo sapiens (Human))" quantity=pIC50 observed_value=6.10

[1] CCN(CC)c1nc2ccc(NC(=O)c3c(C(=O)N(C)C4CC4)cnn3C)cn2n1
[2] Cc1ncc(C)n2nc(/C=C/c3nc(N4CCCC4)n(C)n3)nc12
Identify the item whose pIC50 is the smaller number: 1 or 2 Answer by quoting the chosen item's label.
2

[1] CN(C)CCn1nc(NC(=O)c2nc(C3CC3)ccc2Nc2cncnc2)cc1-c1ccccn1
[2] CN(C)C(=O)c1nn(-c2ccccn2)cc1NC(=O)c1nc(C2CC2)ccc1Nc1cncnc1
[3] CC1CCCN1C(=O)c1nn(C)cc1NC(=O)c1nc(C2CC2)ccc1Nc1cncnc1 (centres unmarked)
[4] O=C(NC1(c2ccc(Br)cc2)CCOCC1)c1cnn2cc(C3CC3)cnc12
[5] COc1cccc(-c2cn3ccc(NC(=O)c4c(C(=O)N(C)C)cnn4C)nc3n2)c1
Please order the records by their reported pIC50, lowest number first. # format: label list in the order the request specifies
4, 1, 3, 2, 5
(4: 5.00, 1: 7.62, 3: 7.94, 2: 8.14, 5: 8.40)

[P] CN(C)C(=O)c1nc(C2CC2)ccc1NC(=O)c1nc(C2CC2)cnc1Nc1cncnc1
[Q] Cc1cc(Br)cnc1C(=O)Nc1ccn2cc(-c3ccccc3)nc2n1
Between the entries labelled P and Q , which has a larger pIC50 value on record? Answer by quoting the chosen item's label.
P
(P: 7.69, Q: 7.19)

====

pIC50: −log10 of the molar value.
A compilation of published pIC50 results with human PDE10A2 (Homo sapiens (Human), UniProt Q9Y233).

Examples with their reported pIC50 follow.
chemical_structure=Cn1ccc(-c2cccc3c2CN(CCc2ccc4ccccc4n2)C3=O)c1 observed_value="6.70 to 7.00"
chemical_structure=COc1cncnc1-c1cnn(C)c1C(=O)Nc1cc2nc(-c3ccccc3)nn2cc1F observed_value="> 8.30"
chemical_structure=Cn1ncc(-c2cc(F)ccn2)c1C(=O)Nc1cc2nc(-c3ccccc3)nn2cc1F observed_value="> 8.30"
chemical_structure=CN(C)c1ncc(-c2cccc3c2CN(CCc2ccc4ccccc4n2)C3=O)cn1 observed_value="6.70 to 7.00"

Turning now to a further record.
Recorded pIC50 for `O=C1c2c(OCCF)ccc(-c3ccncc3)c2C(=O)N1CCc1ccc2ccccc2n1` on human PDE10A2 (Homo sapiens (Human), UniProt Q9Y233) was > 7.00

====

A compilation of published IC50 results with human PDE10A2 (Homo sapiens (Human)).
Quantity: IC50 (nM)

Examples with their reported IC50 follow.
molecule=Cc1c(Cl)cc(C(F)(F)F)c2nc(CCc3nc(N4CC[C@@H](F)C4)nn3C)nn12 observed_value=2.71
molecule=CNC(=O)c1c(NC(=O)c2nc(C3CC3)ccc2Nc2cncnc2)cnn1CCOC observed_value=1.2
molecule=COc1cccc(-c2cn3ccc(NC(=O)c4c(C(=O)N5CC(F)C5)cnn4C)nc3n2)c1 observed_value=14.7
molecule="O=C(N[C@]1(c2ccc(C(F)(F)F)cc2F)CCOC[C@H]1O)c1cnn2cc(C3CC3)cnc12 (racemic)" observed_value=6620
molecule=Cc1c(Cl)cc(C(F)(F)F)c2nc(CCc3nc(N4CCC(F)(F)C4)nn3C)nn12 observed_value=9.78

[1] CCO[C@H](C(=O)c1ccc(-c2cc(OC)c(Cl)c(OC)c2)o1)c1ccc(-c2nnc(C)s2)cc1
[2] O=c1n(C2CC2)c2nccnc2n1[C@H]1C[C@H](Nc2nc3ccc(F)cc3o2)C1
Between the entries labelled 1 and 2 , which has a larger IC50 value on record? Answer by quoting the chosen item's label.
2

[1] Cn1ncc(C(=O)N2CCCC2)c1C(=O)Nc1ccc2nc(N3CCCC3)nn2c1
[2] Cn1cc2c(n1)CN(C(=O)c1cnn(C)c1C(=O)Nc1ccn3cc(-c4ccccc4)nc3n1)C2
[3] COc1cnc(N[C@H]2C[C@H](N3C(=O)C(C)(C)c4cccnc43)C2)nc1
Please order the records by their reported IC50, lowest number first. # format: label list in the order the request specifies
1, 3, 2
